# Study System: cannabinoid type-1 receptor (CB1) (Homo sapiens)
# Construct: gene CNR1; 3HA-tagged human CB1 in HEK293 cells
# Sequence (P21554 whole entry): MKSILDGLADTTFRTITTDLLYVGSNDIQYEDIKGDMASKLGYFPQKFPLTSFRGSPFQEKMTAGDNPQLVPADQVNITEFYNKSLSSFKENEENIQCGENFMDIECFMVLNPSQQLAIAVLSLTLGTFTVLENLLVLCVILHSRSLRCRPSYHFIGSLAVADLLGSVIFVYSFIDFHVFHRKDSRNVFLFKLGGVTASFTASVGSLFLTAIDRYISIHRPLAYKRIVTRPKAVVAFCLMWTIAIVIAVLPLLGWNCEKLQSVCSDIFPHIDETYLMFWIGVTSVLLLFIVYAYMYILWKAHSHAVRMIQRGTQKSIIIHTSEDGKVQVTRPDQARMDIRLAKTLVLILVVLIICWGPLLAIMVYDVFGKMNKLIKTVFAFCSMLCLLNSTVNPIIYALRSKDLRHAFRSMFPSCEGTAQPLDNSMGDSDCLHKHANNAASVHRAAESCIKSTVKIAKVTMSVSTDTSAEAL
# Assay Explanation: BRET CAMYEL cAMP inhibition assay (agonism); also weak radioligand displacement ([…] at […])
# Assay type: cell-based
Quantity Name: EC50 (nM)

INSERT INTO results (compound_smiles, quantity_name, quantitative_readout) VALUES
  ('CC(C)[C@H](NC(=O)c1nn(Cc2ccc(F)cc2)c2ccccc12)C(=O)O', 'EC50', 447);
